The reported numbers originate from patent US20200277373A1.

Quick reference for Kd among some binders
Target Desc: T1, His-tagged TREM2 ECD (ecto domain residues 19-172 of human TREM2, C-terminal 6X-His tag) (human, UniProt Q9NZC2 19-172)
T1 construct: Made in Expi293F cells; the mouse Ig kappa secretion signal is not part of the mature protein; Biotinylated for the Octet binning; also called TREM2-His; TREM2-His protein
T1 sequence: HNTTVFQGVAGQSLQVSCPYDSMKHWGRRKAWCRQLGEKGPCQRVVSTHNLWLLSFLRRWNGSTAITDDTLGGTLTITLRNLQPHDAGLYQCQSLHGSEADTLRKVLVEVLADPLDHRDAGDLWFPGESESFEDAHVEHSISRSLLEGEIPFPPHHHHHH
Protocol Details: Table 1 Kd; Biacore, TREM2-His analyte (presumed)
Method: Anti-murine Fc antibody (obtained from GE Healthcare) was immobilized on the surface of a CM5 chip (obtained from GE Healthcare) through amine-coupling to reach about 6,000 to 8,000 response units (RU). The surface was activated by injection of a mixture of 1-ethyl-3-(3-dimethylaminopropyl)-carbodiimide (EDC) and N-hydroxysuccinimide (NHS), both obtained from GE Healthcare, for 7 minutes. […]
Answer with a number only, understood to be in nM.

>>> value_measured("26D2.D1 (antibody, IgG2a, V domains shown, Mouse hybridoma antibody, IgG2a, k; also called RS8.26D2.D1) VH: EVQLQQSGPELVKPGASVKMSCKASGYTFTSYVMHWVKQKPGQGLEWIGYINPYTDGTKYNEKFKGKATLTSDKSSSTAYMDLSSLTSEDSAVYYCARGEVRRYALDYWGQGTSVTVSS VL: DIQMTQSSSSFSVSLGDRVTITCKASEDIYNRLAWYQQKPGNAPRLLISGATSLETGVPSRFSGSGSGKDYTLSITSLQTEDVATYYCQQYWSTPWTFGGGTKLEIK")
15
>>> value_measured("21D11 (antibody, IgG2a, V domains shown, Mouse hybridoma antibody, IgG2a, k; also called 21D11.B1; RS8.21D11.B1) VH: QVQLQQSGAELARPGASVKLSCKASGYTFTSYWIQWVKQRPGQGLEWIGTIYPGDGDARYTQKFKGKATLTADKSSSTTYMQLNSLASEDSAVYYCARNGITTAGYYAMDYWGQGTSVTVSS VL: DIQMTQSPASLSVSVGETVTITCRASENIYSNLAWYQQKQGRSPQLLVYAATNLADGVPSRFSGSGSGTQYSLKINSLQSEDFGYYYCQHFWGTPYTFGGGTKVEIK")
0.525

With those in mind, consider the next binder.
Entry 24B4.A1 (antibody, V domains shown, Mouse hybridoma antibody, Ig2a, k; same entries as 26E2.A3; also called RS8.24B4.A1) VH: QVHLQQSGSELRSPGSSVKLSCKDFDSEVFPISYMSWIRQKPGHGFEWIGDILPSIGGRIYGVKFEDRATLDADTVSNTAYLELNSLTSEDSAIYYCARKDYGSLAYWGQGTLVTVSA VL: DVVMTQTPLSLPVSLGDQASISCRSSQSLVHINGNTYLQWFLQKPGQSPKLLIYKVSNRFSGVPDRFSGSGSGTAFTLKISRVEAEDLGVYFCSQSTHVPYTFGGGTKLEIK — recorded Kd = 12.4
